target: natural β-amyloid peptide β-AP1-40 (human); test: cell-based or functional assay
Sequence (peptide, as listed by the source): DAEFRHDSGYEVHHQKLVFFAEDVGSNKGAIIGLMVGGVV
Square brackets hold non-standard residues; d marks the D form. Primed or numbered codes have the meaning given here. * marks the point of attachment. Cholyl = C[C@H](CCC(=O)*)[C@H]1CC[C@H]2[C@@H]3[C@H](O)C[C@@H]4C[C@H](O)CC[C@]4(C)[C@H]3C[C@H](O)[C@]12C; Aic″ = 3-(O-aminoethyl-iso)-cholyl; Boc = CC(C)(C)OC(=O)*
The binders listed here are annotated with their % Inucl'n; nucleation assay; 100 mole %.
Write it as a number; the unit % goes unstated.

Consider the following illustrative entries.
Binder	Experimental Endpoint	Meas Value
H-LVFFA[Aic″]-OH [h-LVFFA-(Aic)-oh]	% Inucl'n; nucleation assay; 100 mole %	46
Boc-LVFFA-OH [t-Boc-LVFFA-oh]	% Inucl'n; nucleation assay; 100 mole %	-5
Cholyl-QKLVFF-OH (SMILES CC(C)C[C@H](NC(=O)[C@H](CCCCN)NC(=O)[C@H](CCC(N)=O)NC(=O)CC[C@@H](C)[C@H]1CC[C@H]2[C@@H]3[C@H](O)C[C@@H]4C[C@H](O)CC[C@]4(C)[C@H]3C[C@H](O)[C@]12C)C(=O)N[C@H](C(=O)N[C@@H](Cc1ccccc1)C(=O)N[C@@H](Cc1ccccc1)C(=O)O)C(C)C) [cholyl-Aβ15-20]	% Inucl'n; nucleation assay; 100 mole %	100

Query: Which measured % Inucl'n; nucleation assay; 100 mole % value corresponds to Cholyl-AAAAA-OH (SMILES C[C@H](NC(=O)[C@H](C)NC(=O)[C@H](C)NC(=O)[C@H](C)NC(=O)[C@H](C)NC(=O)CC[C@@H](C)[C@H]1CC[C@H]2[C@@H]3[C@H](O)C[C@@H]4C[C@H](O)CC[C@]4(C)[C@H]3C[C@H](O)[C@]12C)C(=O)O) [Cholyl-penta-alanine] ?
Reply: -7

Query: Repeat with Cholyl-Leu-Val-Phe-OH (SMILES CC(C)C[C@H](NC(=O)CC[C@@H](C)[C@H]1CC[C@H]2[C@@H]3[C@H](O)C[C@@H]4C[C@H](O)CC[C@]4(C)[C@H]3C[C@H](O)[C@]12C)C(=O)N[C@H](C(=O)N[C@@H](Cc1ccccc1)C(=O)O)C(C)C) [CA-LVF-oh]
Reply: 1
